Hey, just so you know, these numbers are from patent US12590062B2.

So I've got a bunch of compounds here, and I need their AC50 values.
# assay-system: PD-L1 (Homo sapiens, UniProt Q9NZQ7)
# Construct: determine if they can specifically dimerize the extracellular domains of PD-L1
# Sequence (Q9NZQ7 19-238 limits assumed): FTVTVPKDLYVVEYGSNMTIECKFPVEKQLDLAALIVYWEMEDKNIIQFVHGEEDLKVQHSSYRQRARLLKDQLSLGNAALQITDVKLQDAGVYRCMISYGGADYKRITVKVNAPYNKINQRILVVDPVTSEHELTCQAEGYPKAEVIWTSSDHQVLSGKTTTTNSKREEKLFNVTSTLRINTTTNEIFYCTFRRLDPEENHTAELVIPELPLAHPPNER
# Sequence (Q9NZQ7 19-238 limits assumed): as above
# assay-details: PD-L1/PD-L1 dimerization biochemical protein-protein interaction assay (ALPHA)
# Assay type: binding
# protocol-conditions: compound-induced PD-L1 dimerization, head prints '1 nM' (0.5 nM His-tagged PD-L1 and 0.5 nM FLAG-tagged PD-L1), read-out: AC50 PDL1 Dimer Alpha 1 nM
# value in nM; strip the unit string

Q) What value of measured AC50 is listed for COc1nc(-c2cccc(-c3cccc(-c4ccc5c(c4)CCC(N)C5)c3Cl)c2Cl)ccc1CN1CC2(CCC(=O)N2)C1 (centres unmarked) [Example 612] ?
A) 729

Q) What value of measured AC50 is listed for Cc1c(COc2cc(OCc3cncc(C#N)c3)c(CN[C@@](C)(CO)C(=O)O)cc2Cl)cccc1-c1cccc(-c2cnc3c(Cl)cc(CN[C@@](C)(CO)C(=O)O)cc3c2)c1C [Example 296] ?
A) 108

Q) What value of measured AC50 is listed for N#Cc1cncc(COc2nc(OCc3cccc(-c4cccc(-c5ccc(OCCNCCO)cc5)c4Cl)c3Cl)c(Cl)cc2CNC[C@@H](O)CC(=O)O)c1 [Example 561] ?
A) 193

Q) What value of measured AC50 is listed for COc1nc(-c2cccc(-c3cccc4c3CC[C@@H]4Oc3nc(OC)c(CN4CCCC(O)(C(=O)O)C4)cc3Cl)c2Cl)ccc1CNC[C@@H]1CCC(=O)N1 (some centres unmarked) [Example 762] ?
A) 13.6

Q) What value of measured AC50 is listed for COc1nc(-c2cccc(-c3cccc4c3CC[C@@H]4Oc3nc(OC)c(CN4CCC[C@H](C(=O)O)[C@@H]4C)cc3Cl)c2Cl)ccc1CNC[C@@H]1CCC(=O)N1 [Example 764] ?
A) 31.9

Q) What value of measured AC50 is listed for COc1nc(O[C@H]2CCc3c(-c4cccc(-c5ccc(CNC[C@@H]6CCC(=O)N6)cc5)c4Cl)cccc32)c(Cl)cc1CN1CC[C@H](O)C1 [Example 718] ?
A) 70.4

Q) What value of measured AC50 is listed for COc1nc(-c2cccc(-c3cccc4c3CC[C@@H]4Oc3ccc(CN[C@@](C)(CO)C(=O)O)c(OCc4cncc(C#N)c4)n3)c2Cl)ccc1C1=NCCN1 [Example 746] ?
A) 104

Q) What value of measured AC50 is listed for COc1nc(-c2cccc(-c3cccc(NC(=O)c4ccc(C5=NCCN5)cn4)c3C)c2Cl)ccc1C1=NCCN1 [Example 434] ?
A) 106

====

# assay-system: PD-1/PD-L1 (Homo sapiens, UniProt Q9NZQ7)
# Sequence (Q9NZQ7 19-238 limits assumed): as above
# assay-details: PD-1/PD-L1 biochemical protein-protein interaction assay (ALPHA)
# protocol-conditions: 0.3 nM His tagged PD-L1, 2.5 nM biotinylated Fc-PD-1, 60 minutes at 25° C., read-out: IC50 PD-L1-PD-1 Alpha IC50-mono PD-L1-fcP-D1
observable: pIC50
Bear in mind: pIC50 is minus log10 of a mol/L concentration; give just that figure.

Q) Kindly state the measured pIC50 obtained for Cc1c(COc2ccc(CNC[C@@H](O)CC(=O)O)c(OCCN3CCOCC3)n2)cccc1-c1cccc(COc2ccc(CNC[C@@H](O)CC(=O)O)c(OCCN3CCOCC3)n2)c1C with PD-1/PD-L1 (Homo sapiens, UniProt Q9NZQ7).
A) 8.70

Q) Kindly state the measured pIC50 obtained for Cc1c(COc2cc(OCc3cncc(C#N)c3)c(CNC[C@@H](O)CC(=O)O)cc2Cl)cccc1-c1cccc(OCc2ccc(CNC[C@@H](O)CC(=O)O)cn2)c1C with PD-1/PD-L1 (Homo sapiens, UniProt Q9NZQ7).
A) 10.29

Q) Kindly state the measured pIC50 obtained for COc1cc(-c2cccc(-c3cccc(COc4cc(OCc5cncc(C#N)c5)c(CN[C@@](C)(CO)C(=O)O)cc4Cl)c3C)c2C)ccc1C1=NCCN1 with PD-1/PD-L1 (Homo sapiens, UniProt Q9NZQ7).
A) 10.19
